Origin of the recorded values: patent US9150592B2

Tested on: IL-6 in A549 cells stimulated with IL-1β
Test Description: A549 Cell Assay to Measure Inflammation Markers (inhibition of IL-1β-induced IL-6)
Type: cell-based
Measurement Setup: Homo sapiens, A549, A549 Cell Assay to Measure Inflammation Markers; intrinsic activity, Emax class ranges
Please provide measured Emax for the entries that follow.

Input Cn1nc(-c2ccccc2)c2c1NCCSC2c1ccc(Cl)cc1Cl (centres unmarked) , output reported Emax.
< 50%

Input Cc1cc2c(cnn2-c2ccc(F)cc2)cc1C1SCCNc2c1c(-c1ccccn1)nn2C (centres unmarked) , output reported Emax.
> 70%

Input Cc1cc(Cl)ccc1C1SC(C)(C)CNc2c1c(C)nn2C1CCCC1 (centres unmarked) , output reported Emax.
< 50%

Input Cn1nc(-c2cc(F)cc(F)c2)c2c1NCCSC2c1ccc(Cl)cc1Cl (centres unmarked) , output reported Emax.
< 50%

Input CCn1nc(-c2ccccn2)c2c1NCCSC2c1ccc(C(=O)Nc2nnc(C)s2)cc1C (centres unmarked) , output reported Emax.
< 50%

Input CC1CSC(c2ccc(Br)cc2C(F)(F)F)c2c(-c3ccccn3)nn(C)c2N1 (centres unmarked) , output reported Emax.
< 50%

Input Cc1cc(Cl)ccc1[C@H]1SC(C)(C)[C@@H](c2ccccc2)Nc2c1c(C)nn2C (racemic) , output reported Emax.
< 50%

Input Cc1ncccc1NC(=O)c1ccc(C2SCCNc3c2c(-c2ccccn2)nn3C)c(Cl)c1 (single isomer, unassigned) , output reported Emax.
< 50%

Input Cc1cc(C(=O)Nc2cccnc2C)ccc1C1SCC(CO)Nc2c1c(-c1ccccn1)nn2C (single isomer, unassigned) , output reported Emax.
> 70%

Input COc1ccc(C)c(C2SCCNc3c2c(-c2ccccn2)nn3C)c1 (centres unmarked) , output reported Emax.
< 50%

Input Cc1nn(C)c2c1C(c1ccc(Cl)cc1Cl)SC1(CCOCC1)CN2 (centres unmarked) , output reported Emax.
< 50%

Input Cc1cc(Cl)ccc1C1SCCNc2c1c(-c1cc(Cl)ccn1)nn2C (centres unmarked) , output reported Emax.
< 50%

Input CCn1nc(-c2ccccn2)c2c1N[C@H](C)CS[C@H]2c1ccc(C#CCO)cc1C (single isomer, unassigned) , output reported Emax.
> 60%

Input Cc1cc(Cl)cnc1C1SCCNc2c1c(-c1ccccn1)nn2C (centres unmarked) , output reported Emax.
< 50%

Input Cc1cc(Cl)ccc1C1SC(C)(C)CNc2c1c(C)nn2C (centres unmarked) , output reported Emax.
> 50%

Input Cc1ccc(Br)cc1C1SC(C)(C)C=Nc2c1c(C1CC1)nn2C (centres unmarked) , output reported Emax.
< 50%

Input CCn1nc(-c2ccccn2)c2c1N[C@@H](C)CS[C@H]2c1ccc(CCCO)cc1C (single isomer, unassigned) , output reported Emax.
> 60%

Input Cc1ccc(C(=O)Nc2cccnc2C)cc1C1SCCNc2c1c(-c1ccccn1)nn2C (centres unmarked) , output reported Emax.
< 50%

Input Cc1nn(C)c2c1C(c1ccc(Cl)cc1Cl)S(=O)(=O)C(C)(C)CN2 (centres unmarked) , output reported Emax.
< 50%

Input Cc1cc(C(F)(F)F)ccc1C1SC(C)(C)CNc2c1c(C)nn2C (centres unmarked) , output reported Emax.
< 50%

Input CCn1nc(-c2ccccn2)c2c1NCCSC2c1ccc(C(=O)Nc2cc(C)no2)cc1C (centres unmarked) , output reported Emax.
< 50%

Input Cc1ccc(Br)cc1C1SCCNc2c1c(-c1ccccn1)nn2C (centres unmarked) , output reported Emax.
< 50%

Input Cc1cc(C#CCO)ccc1[C@@H]1SC[C@H](C)Nc2c1c(-c1ccccn1)nn2C (single isomer, unassigned) , output reported Emax.
< 50%

Input Cc1ccc(Cl)cc1C1SC(C)(C)CNc2c1c(C1CC1)nn2C (centres unmarked) , output reported Emax.
< 50%

Input Cn1nc(-c2ccccn2)c2c1NCCSC2c1ccc(Br)cc1 (centres unmarked) , output reported Emax.
< 50%

Input CCn1nc(-c2ccccn2)c2c1N[C@@H](C)CS[C@H]2c1ccc(C#CCO)cc1C (single isomer, unassigned) , output reported Emax.
> 60%

Input Cc1cc(Cl)ccc1[C@H]1S[C@@H](CCO)CNc2c1c(C)nn2C (single isomer, unassigned) , output reported Emax.
> 70%

Input Cc1cc(Cl)ccc1[C@H]1S[C@H](CCO)CNc2c1c(-c1ccccn1)nn2C (single isomer, unassigned) , output reported Emax.
< 50%

Input Cn1nc(-c2ccccn2)c2c1NCCSC2c1c(Cl)cccc1Cl (centres unmarked) , output reported Emax.
< 50%

Input CCn1nc(-c2ccccn2)c2c1N[C@@H](C)CS[C@H]2c1ccc(CCC(C)(C)O)cc1C (single isomer, unassigned) , output reported Emax.
> 70%

Input Cc1cc(Br)ccc1[C@@H]1SC[C@@H](CO)Nc2c1c(-c1ccccn1)nn2C (racemic) , output reported Emax.
> 60%

Input Cn1nc(-c2ccccn2)c2c1NCCSC2c1ccc(Cl)cc1Br (centres unmarked) , output reported Emax.
> 50%

Input Cn1nc(-c2ccccn2)c2c1NCCSC2c1ccc(Cl)cc1Cl (centres unmarked) , output reported Emax.
< 50%

Input Cc1nn(C)c2c1C(c1ccc3[nH]ncc3c1)SCCN2 (centres unmarked) , output reported Emax.
< 50%

Input Cc1cc(OCc2cccnc2C)ccc1C1SCCNc2c1c(-c1ccccn1)nn2C (centres unmarked) , output reported Emax.
< 50%
